Just for reference, ChEMBL document CHEMBL1148617 is where these values come from.

These compounds were tested on Adenosine receptor A2a (Homo sapiens, UniProt P29274); Ki is the recorded read-out.
Sequence (P29274 whole entry): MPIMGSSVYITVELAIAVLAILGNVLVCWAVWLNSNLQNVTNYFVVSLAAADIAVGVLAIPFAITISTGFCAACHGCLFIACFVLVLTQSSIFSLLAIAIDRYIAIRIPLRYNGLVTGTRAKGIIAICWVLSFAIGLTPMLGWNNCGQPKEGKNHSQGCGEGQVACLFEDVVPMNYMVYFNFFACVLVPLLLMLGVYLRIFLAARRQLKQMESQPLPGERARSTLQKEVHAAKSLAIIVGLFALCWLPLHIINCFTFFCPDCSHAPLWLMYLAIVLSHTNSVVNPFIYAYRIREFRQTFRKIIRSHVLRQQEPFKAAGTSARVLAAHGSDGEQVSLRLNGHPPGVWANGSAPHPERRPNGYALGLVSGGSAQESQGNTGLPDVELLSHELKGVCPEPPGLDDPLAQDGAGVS
measure_name: Ki (nM)

CCCn1c(=O)n(C)c(=O)c2[nH]c(-c3ccc(OCC(=O)Nc4ccc(F)cc4)cc3)cc21: 112

a = COc1cc(-c2cc3c([nH]2)c(=O)n(C)c(=O)n3C)ccc1OCC(=O)NCc1ccc(Cl)cc1
b = COc1cc(-c2cc3c([nH]2)c(=O)n(C)c(=O)n3C)ccc1OCC(=O)Nc1ccc(Br)cc1
c = COc1cccc(CNC(=O)COc2ccc(-c3cc4c([nH]3)c(=O)n(C)c(=O)n4C)cc2)c1
(Q) Reorder: Ki, max to min. Reply with the item labels sorted in the order that was asked for.
(A) c, a, b
